target: Microphthalmia-associated transcription factor (Homo sapiens)
Sequence (O75030 whole entry): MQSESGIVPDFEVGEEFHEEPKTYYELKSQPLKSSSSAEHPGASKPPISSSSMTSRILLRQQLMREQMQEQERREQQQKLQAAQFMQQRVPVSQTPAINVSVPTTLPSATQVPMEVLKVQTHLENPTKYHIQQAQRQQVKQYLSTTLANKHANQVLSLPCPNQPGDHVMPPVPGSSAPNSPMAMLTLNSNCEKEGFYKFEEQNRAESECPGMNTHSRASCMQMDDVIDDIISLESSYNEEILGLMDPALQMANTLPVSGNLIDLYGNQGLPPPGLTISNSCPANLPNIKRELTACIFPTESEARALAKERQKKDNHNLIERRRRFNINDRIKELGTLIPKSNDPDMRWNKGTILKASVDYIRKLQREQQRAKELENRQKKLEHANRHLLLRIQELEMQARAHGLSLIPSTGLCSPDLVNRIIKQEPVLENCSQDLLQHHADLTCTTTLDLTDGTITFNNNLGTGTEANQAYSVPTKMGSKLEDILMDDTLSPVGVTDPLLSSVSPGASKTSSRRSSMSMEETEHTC
protocol_notes: reducers of TRPM1 reporter luminescence, concentration series – cell-based, SK-MEL-5, cherry-picked, set 3, MITF inhibitor project, dose response (AID 493073);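 also: SK-MEL-5 melanoma cells with luciferase driven by the MITF target TRPM1 promoter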
Type: functional
The source made the active and inactive calls. No rule for the calls is given here.
Would you mind telling me the reported AC50 of each entry?

[Q] Recorded AC50 for Cc1ccc(NC(=O)c2ccc([N+](=O)[O-])o2)cc1S(=O)(=O)N1CCOCC1 , please?
[A] 11.4 µM (active)

[Q] Try this compound too: Cc1n[nH]c(NC(=O)/C=C/c2ccccc2)n1
[A] 17.8 µM (active)

[Q] What do you get for O=C(Nc1ccc(OC(=O)N2CCCCC2)cc1)N1CCOCC1 ?
[A] 27.4 µM (active)

[Q] One more compound: O=[N+]([O-])c1ccc(/C=N/Nc2ccnc3cc(Cl)ccc23)o1
[A] 15.3 µM (active)
